Test system: Candida albicans
protocol: Antimicrobial activity against Candida albicans MTCC 183 assessed as diameter of growth inhibition zone after 48 hr; further: test concentration or dose not given here
Assay type: functional
Would you mind labelling by diameter of the inhibition zone (DIZ)? At or over 20 mm is 1 (yes), under is 0 (no).

Solved entries (count: 8):
COc1ccc(-c2cc(-c3ccc(Nc4cc(=O)oc5ccccc45)cc3)nc(N)c2C#N)cc1 :: 1 (yes)
N#Cc1c(-c2ccc(O)cc2O)cc(-c2ccc(Nc3cc(=O)oc4ccccc34)cc2)nc1N :: 1 (yes)
Cc1ccc(-c2cc(-c3ccc(Nc4cc(=O)oc5ccccc45)cc3)nc(N)c2C#N)cc1 :: 1 (yes)
Nc1nc(-c2ccccc2)cc(-c2ccc(Nc3cc(=O)oc4ccccc34)cc2)n1 :: 0 (no)
CC(=O)N1N=C(c2ccc(Nc3cc(=O)oc4ccccc34)cc2)CC1c1ccccc1Br (configuration not stated) :: 1 (yes)
CC(=O)N1N=C(c2ccc(Nc3cc(=O)oc4ccccc34)cc2)CC1c1ccccc1 (configuration not stated) :: 0 (no)
COc1ccc(-c2cc(-c3ccc(Nc4cc(=O)oc5ccccc45)cc3)nc(N)n2)cc1 :: 1 (yes)
COc1ccc(C2CC(c3ccc(Nc4cc(=O)oc5ccccc45)cc3)=NN2C(C)=O)cc1 (configuration not stated) :: 0 (no)

Now turn to the next molecule.
## Input Confirm if diameter of the inhibition zone (DIZ) reported for the molecule O=C(/C=C/c1ccccc1)c1ccc(Nc2cc(=O)oc3ccccc23)cc1 is 20 mm or above.
## Output 0 (no)

---

Tested on: Proteus vulgaris
protocol: Antimicrobial activity against Proteus vulgaris MTCC 1771 assessed as diameter of growth inhibition zone after 24 hr
Assay type: functional
diameter of the inhibition zone (DIZ) vs 20 mm: at or above is True, below is False.

Consider the worked cases shown below.
N#Cc1c(-c2ccccc2O)cc(-c2ccc(Nc3cc(=O)oc4ccccc34)cc2)nc1N :: True
COc1ccc(-c2cc(-c3ccc(Nc4cc(=O)oc5ccccc45)cc3)nc(N)n2)cc1OC :: True

## Input API: above_or_equal(metric=diameter of the inhibition zone (DIZ), cutoff=20 mm) for item CC(=O)N1N=C(c2ccc(Nc3cc(=O)oc4ccccc34)cc2)CC1c1ccccc1 (centres undefined)
## Output False

## Input Dear colleague, could you confirm whether COc1ccc(/C=C/C(=O)c2ccc(Nc3cc(=O)oc4ccccc34)cc2)cc1OC has diameter of the inhibition zone (DIZ) at or above 20 mm?
## Output False

## Input Is the recorded value of diameter of the inhibition zone (DIZ) equal to or greater than 20 mm for this molecule? Nc1nc(-c2ccccc2)cc(-c2ccc(Nc3cc(=O)oc4ccccc34)cc2)n1
## Output False

## Input Record Nc1nc(-c2ccc(Nc3cc(=O)oc4ccccc34)cc2)cc(-c2ccccc2Br)n1 ; criterion: diameter of the inhibition zone (DIZ) no lower than 20 mm. Met?
## Output False

## Input Has Nc1nc(-c2ccc(F)cc2)cc(-c2ccc(Nc3cc(=O)oc4ccccc34)cc2)n1 a recorded diameter of the inhibition zone (DIZ) greater than or equal to 20 mm?
## Output True

## Input # check: diameter of the inhibition zone (DIZ) of N#Cc1c(-c2ccc(Cl)cc2Cl)cc(-c2ccc(Nc3cc(=O)oc4ccccc34)cc2)nc1N is greater than or equal to 20 mm
## Output True

## Input Form field: diameter of the inhibition zone (DIZ) at least 20 mm? Entry: COc1ccc(-c2cc(-c3ccc(Nc4cc(=O)oc5ccccc45)cc3)nc(N)c2C#N)cc1
## Output True

## Input hey, is diameter of the inhibition zone (DIZ) for this one >= 20 mm? COc1ccc(-c2cc(-c3ccc(Nc4cc(=O)oc5ccccc45)cc3)nc(N)n2)cc1
## Output True

## Input Answer whether diameter of the inhibition zone (DIZ) of Nc1nc(-c2ccc(Cl)cc2)cc(-c2ccc(Nc3cc(=O)oc4ccccc34)cc2)n1 is greater than or equal to 20 mm.
## Output True

## Input diameter of the inhibition zone (DIZ) >= 20 mm for O=C(/C=C/c1ccc(Cl)cc1Cl)c1ccc(Nc2cc(=O)oc3ccccc23)cc1 ?
## Output False

## Input Answer whether diameter of the inhibition zone (DIZ) of CC(=O)N1N=C(c2ccc(Nc3cc(=O)oc4ccccc34)cc2)CC1c1ccc(Cl)cc1 (centres undefined) is greater than or equal to 20 mm.
## Output False

---

Test system: Aspergillus niger
protocol: Antimicrobial activity against Aspergillus niger MTCC 282 assessed as diameter of growth inhibition zone after 48 hr; further: test concentration or dose not given here
Format: functional
assayEndpoint: diameter of the inhibition zone (DIZ)

Below: 3 molecules and their reported diameter of the inhibition zone (DIZ).
Nc1nc(-c2ccc(Nc3cc(=O)oc4ccccc34)cc2)cc(-c2ccc(O)cc2O)n1 :: 22 mm
O=C(/C=C/c1ccccc1)c1ccc(Nc2cc(=O)oc3ccccc23)cc1 :: <10 mm
CC(=O)N1N=C(c2ccc(Nc3cc(=O)oc4ccccc34)cc2)CC1c1ccc([N+](=O)[O-])cc1 (centres undefined) :: 14 mm

## Input Return reported diameter of the inhibition zone (DIZ); argument: CC(=O)N1N=C(c2ccc(Nc3cc(=O)oc4ccccc34)cc2)CC1c1ccccc1Br (centres undefined)
## Output 15 mm

## Input Endpoint output: diameter of the inhibition zone (DIZ) of CC(=O)N1CCN(c2ccc(OCC3COC(Cn4ccnc4)(c4ccc(Cl)cc4Cl)O3)cc2)CC1 (centres undefined) [KETOCONAZOLE] . Value?
## Output 30 mm

## Input # diameter of the inhibition zone (DIZ) lookup, item N#Cc1c(-c2ccc(Cl)cc2Cl)cc(-c2ccc(Nc3cc(=O)oc4ccccc34)cc2)nc1N
## Output 22 mm

## Input Give the measured diameter of the inhibition zone (DIZ) of CC(=O)N1N=C(c2ccc(Nc3cc(=O)oc4ccccc34)cc2)CC1c1ccc(C)cc1 (centres undefined) .
## Output 19 mm

## Input Requested read-out: diameter of the inhibition zone (DIZ). Entry: Nc1nc(-c2ccc(Nc3cc(=O)oc4ccccc34)cc2)cc(-c2ccccc2Br)n1
## Output 20 mm

## Input May I ask what diameter of the inhibition zone (DIZ) has been recorded for N#Cc1c(-c2ccc(Cl)cc2)cc(-c2ccc(Nc3cc(=O)oc4ccccc34)cc2)nc1N ?
## Output 20 mm

---

Tested on: Aspergillus niger
protocol: Antimicrobial activity against Aspergillus niger MTCC 282 assessed as diameter of growth inhibition zone after 48 hr; further: test concentration or dose not given here
Type: functional
assayEndpoint: diameter of the inhibition zone (DIZ) (mm)
Write the value in mm as a bare number.

Answered examples (2):
COc1ccc(/C=C/C(=O)c2ccc(Nc3cc(=O)oc4ccccc34)cc2)cc1OC :: 21
Cc1ccc(-c2cc(-c3ccc(Nc4cc(=O)oc5ccccc45)cc3)nc(N)c2C#N)cc1 :: 24

Proceeding to the next compound to report its diameter of the inhibition zone (DIZ).
## Input Request body: readout diameter of the inhibition zone (DIZ), system Aspergillus niger, query N#Cc1c(-c2ccc(O)cc2O)cc(-c2ccc(Nc3cc(=O)oc4ccccc34)cc2)nc1N . Return the value.
## Output 22

---

System: Aspergillus niger
protocol: Antimicrobial activity against Aspergillus niger MTCC 282 assessed as diameter of growth inhibition zone after 48 hr; further: test concentration or dose not given here
Assay type: functional
We use 20 mm as the dividing line for diameter of the inhibition zone (DIZ): on or above the line is True, below is False.

Examples with answers:
CC(=O)N1N=C(c2ccc(Nc3cc(=O)oc4ccccc34)cc2)CC1c1ccc(Cl)cc1Cl (centres undefined) :: False
COc1ccc(-c2cc(-c3ccc(Nc4cc(=O)oc5ccccc45)cc3)nc(N)n2)cc1OC :: True
N#Cc1c(-c2ccccc2)cc(-c2ccc(Nc3cc(=O)oc4ccccc34)cc2)nc1N :: True
Nc1nc(-c2ccc(Nc3cc(=O)oc4ccccc34)cc2)cc(-c2ccc([N+](=O)[O-])cc2)n1 :: False
COc1ccc(C2CC(c3ccc(Nc4cc(=O)oc5ccccc45)cc3)=NN2C(C)=O)cc1 (centres undefined) :: True

## Input Entry O=C(/C=C/c1ccccc1O)c1ccc(Nc2cc(=O)oc3ccccc23)cc1 : is its diameter of the inhibition zone (DIZ) no less than 20 mm?
## Output False

## Input I'd appreciate it if you could say whether COc1ccc(C2CC(c3ccc(Nc4cc(=O)oc5ccccc45)cc3)=NN2C(C)=O)cc1OC (centres undefined) has diameter of the inhibition zone (DIZ) at least equal to 20 mm.
## Output True

## Input Item O=C(/C=C/c1ccccc1Br)c1ccc(Nc2cc(=O)oc3ccccc23)cc1 with diameter of the inhibition zone (DIZ) of 20 mm or above?
## Output False

---

Reported log10 of MIC values for the following compounds.
Tested on: Pseudomonas aeruginosa
protocol: Antimicrobial activity against Pseudomonas aeruginosa MTCC 741 assessed as growth inhibition after 24 hr by agar streak dilution method
Format: functional
assayContext: MTCC 741, 24 h
A difference of one corresponds to tenfold MIC; all values are log10 with MIC in µg/mL.

O=C(/C=C/c1ccccc1Br)c1ccc(Nc2cc(=O)oc3ccccc23)cc1 :: 2.00
N#Cc1c(-c2ccc(O)cc2O)cc(-c2ccc(Nc3cc(=O)oc4ccccc34)cc2)nc1N :: 0.80
O=C(/C=C/c1ccc(Cl)cc1)c1ccc(Nc2cc(=O)oc3ccccc23)cc1 :: 2.00
CC(=O)N1N=C(c2ccc(Nc3cc(=O)oc4ccccc34)cc2)CC1c1ccccc1 (centres undefined) :: 2.00
Nc1nc(-c2ccc(Nc3cc(=O)oc4ccccc34)cc2)cc(-c2ccc([N+](=O)[O-])cc2)n1 :: 2.00
Nc1nc(-c2ccccc2)cc(-c2ccc(Nc3cc(=O)oc4ccccc34)cc2)n1 :: 2.00

## Input Which log10 of MIC value is on record for Nc1nc(-c2ccc(Cl)cc2)cc(-c2ccc(Nc3cc(=O)oc4ccccc34)cc2)n1 ?
## Output 2.00

## Input Any idea what log10 of MIC was measured for CC(=O)N1N=C(c2ccc(Nc3cc(=O)oc4ccccc34)cc2)CC1c1ccc(Cl)cc1 (centres undefined) ?
## Output 2.00

## Input Reported log10 of MIC for N#Cc1c(-c2ccccc2O)cc(-c2ccc(Nc3cc(=O)oc4ccccc34)cc2)nc1N : what is it?
## Output 1.10

## Input # get_value(readout='log10 of MIC', item= COc1ccc(-c2cc(-c3ccc(Nc4cc(=O)oc5ccccc45)cc3)nc(N)n2)cc1 )
## Output 1.10

## Input Item under review: O=C(/C=C/c1ccc(Cl)cc1Cl)c1ccc(Nc2cc(=O)oc3ccccc23)cc1 . Reported log10 of MIC?
## Output 2.00

## Input log10 of MIC lookup needed for COc1ccc(C2CC(c3ccc(Nc4cc(=O)oc5ccccc45)cc3)=NN2C(C)=O)cc1 (centres undefined) , thanks.
## Output 1.70

## Input Tell me the measured log10 of MIC of CC(=O)N1N=C(c2ccc(Nc3cc(=O)oc4ccccc34)cc2)CC1c1ccc(F)cc1 (centres undefined) , please.
## Output 1.70

## Input Fill in the blank: the reported log10 of MIC of CC(=O)N1N=C(c2ccc(Nc3cc(=O)oc4ccccc34)cc2)CC1c1ccc(Cl)cc1Cl (centres undefined) is ____.
## Output 1.40

## Input Form field: reported log10 of MIC of COc1ccc(C2CC(c3ccc(Nc4cc(=O)oc5ccccc45)cc3)=NN2C(C)=O)cc1OC (centres undefined)
## Output 1.70

## Input Record request: log10 of MIC value, item Nc1nc(-c2ccc(Nc3cc(=O)oc4ccccc34)cc2)cc(-c2ccccc2Br)n1
## Output 2.00

## Input For COc1ccc(-c2cc(-c3ccc(Nc4cc(=O)oc5ccccc45)cc3)nc(N)n2)cc1OC , what is its reported log10 of MIC?
## Output 1.10

## Input Need log10 of MIC of Cc1ccc(-c2cc(-c3ccc(Nc4cc(=O)oc5ccccc45)cc3)nc(N)c2C#N)cc1 , thanks.
## Output 1.10

## Input So what's the measured log10 of MIC for this one? Nc1nc(-c2ccc(F)cc2)cc(-c2ccc(Nc3cc(=O)oc4ccccc34)cc2)n1
## Output 1.10
